Values of IC50 for BTK (Homo sapiens), collected from a number of published sources:
READOUT_NAME: IC50

>>> value_reported("CC(C)Oc1ccc(-n2ncc(C(=O)c3cc4ccccc4[nH]3)c2N)cc1")
"73800 nM"
>>> value_reported("Cc1cc(-c2ccnc(Nc3cnn(C)c3)n2)ccc1CNC(=O)c1cnn(C(C)(C)C)c1")
"< 10 nM"
>>> value_reported("CC(C)[C@@H](Nc1ccccc1)C(=O)N[C@@H]1CCCN(c2ncnc3[nH]ccc23)C1")
"100 to 999 nM"
>>> value_reported("CC(C)(C)c1ccc(C(=O)NCc2cc(F)c(-c3ncnc4[nH]ccc34)cc2Cl)nc1")
"10 to 99 nM"
>>> value_reported("COc1cc(-c2nn(-c3cccc(N(C)C(=O)/C=C/CN4CCOCC4)c3)c3ncnc(N)c23)ccc1C")
"< 100 nM"
>>> value_reported("CC(C)(C)C1CCN(S(=O)(=O)c2ccccc2NCC(=O)N[C@@H]2CCCN(c3ncnc4[nH]ncc34)C2)CC1")
"< 100 nM"
>>> value_reported("CNC/C=C/C(=O)N1CCC[C@@H](n2cc(-c3ccc(Oc4ccccc4)cc3)c3c(N)n[nH]c(=O)c32)C1")
"≤ 10 nM"
>>> value_reported("C=CC(=O)Nc1cccc(-c2cc(N3CCOCC3)cc(Nc3ncc(C)s3)n2)c1")
"> 100 nM"
>>> value_reported("CN(C/C=C/C(=O)N1CCOc2ccc(-n3c(=O)n(-c4ccc(Oc5ccccc5)cc4)c4c(N)ncnc43)cc21)C1CC1")
"< 100 nM"
>>> value_reported("Cc1c(-c2ccc(Oc3ccccc3)cc2)c2c(N)ncnc2n1[C@@H]1CCN(C(=O)/C=C/CN(C)[C@@H]2CCOC2)C1")
"< 100 nM"
>>> value_reported("C=CC(=O)N1CC[C@]2(C1)C[C@H](n1c(NC(=O)c3ccc(-c4cc[nH]n4)s3)nc3ccccc31)C2")
"15.7 nM"
>>> value_reported("C=CC(=O)N1CC[C@]2(C1)C[C@@H](n1c(NC(=O)c3ccc(-c4cnco4)s3)nc3cccc(F)c31)C2")
"10.5 nM"
>>> value_reported("Cn1cc(-c2cn3nccc3c(-c3ccc(CNC(=O)c4coc(C(C)(C)C)n4)c(C(F)F)c3)n2)cn1")
"1 to 10 nM"
>>> value_reported("C=CC(=O)Nc1cccc(Oc2nc(Nc3ccc(OC4CCN(CC)CC4)cc3)nc3ccsc23)c1")
"≤ 50 nM"
>>> value_reported("Cc1cc(-c2ncnc3[nH]c(-c4cnn(C)c4)cc23)ccc1CNC(=O)c1cnc(C(C)(C)C)s1")
"< 10 nM"
>>> value_reported("C=CC(=O)N[C@H](C(=O)Nc1cccc(Nc2ncc3cc(-c4c(C)cc[nH]c4=O)ccc3n2)c1)C(C)C")
"< 100 nM"
>>> value_reported("CC#CC(=O)N[C@@H]1CCC[C@H](c2c(F)c(F)c(C(N)=O)c3[nH]c(C)c(F)c23)C1")
"> 10 nM"
>>> value_reported("Cn1cc(-c2cn3nccc3c(N3CC[C@H](CNC(=O)c4noc(C(C)(C)C)n4)C(F)(F)C3)n2)cn1 (single isomer, unassigned)")
"10 to 1000 nM"
>>> value_reported("O=C(CNc1cccc(OC2CCCC2)c1)N[C@@H]1CCCN(c2ncnc3[nH]ccc23)C1")
"100 to 999 nM"
>>> value_reported("CCN(C(=O)/C=C/CN(C)C)c1cccc(Nc2ncc3cc(-c4c(C)cc[nH]c4=O)ccc3n2)c1")
"< 100 nM"
>>> value_reported("O=C(CNc1cc(Cl)cc(Cl)c1)N1Cc2ccccc2C(Nc2ncnc3[nH]ccc23)C1 (centres unmarked)")
"< 100 nM"
>>> value_reported("CCOc1cc(C(=O)Nc2cc(C(F)(F)F)ccn2)ccc1-c1nc([C@]2(C)CC[C@H]3COC(=O)N3C2)n2ccnc(N)c12")
"0.59 nM"
>>> value_reported("O=C(CNc1cccc(SC(F)(F)F)c1)NC1CCCN(c2ncnc3[nH]ccc23)C1 (centres unmarked)")
"100 to 999 nM"
>>> value_reported("Nc1ncnc2c1c(-c1cc(O)c(F)c(F)c1)cn2C1CCc2ccccc2C1 (centres unmarked)")
"20.2 nM"
>>> value_reported("CN(C)C/C=C/C(=O)N1CC[C@@H](n2c(C3CC3)c(-c3ccc(Oc4ccccc4)cc3)c3c(N)ncnc32)C1")
"< 100 nM"
>>> value_reported("COc1cc(-n2c(=O)n(-c3cccc(N(C)C(=O)/C=C/CN(C)C4CC4)c3)c3ncnc(N)c32)ccc1Oc1ccccc1")
"< 100 nM"
>>> value_reported("CC(C)(C)Cc1nc2ccc(-c3cccc4c(N)c(C(N)=O)nnc34)cc2[nH]1")
"631 nM"
>>> value_reported("Cc1ccc(Cl)cc1NCC(=O)N[C@@H]1CCCN(c2ncnc3[nH]ccc23)C1")
"100 to 999 nM"
>>> value_reported("CS(=O)(=O)Nc1cccc(-c2ccnc3[nH]cc(C(=O)c4cc(F)ccc4F)c23)c1")
"≤ 10000 nM"
